# experiment.description: Toxicity in guinea pig heart assessed as decrease in ventricular contraction at 10 uM relative to control
# Format: tissue-based, Cavia porcellus, Cardiac ventricle
value.type: inhibition at 10 µM (%)
Answers are plain numbers, in %.

Exam item: Record request: inhibition at 10 µM value, item `Cc1cc(N2CC[C@H](N3CCC[C@@H]3C)C2)ccc1NC(=O)c1c(C)noc1C`
Marked response: 23

====

# experiment.description: Tmax in OF1 mouse plasma at 10 mg/kg, po
# Format: ADME, organism-based
# Design: dose 10 mg/kg, route oral
value.type: Tmax (min)
Give bare numbers, in min.

Exam item: Record request: Tmax value, item `Cc1cc(N2CC[C@H](N3CCC[C@@H]3C)C2)ccc1NC(=O)c1c(C)noc1C`
Marked response: 10.2
